pIC50: −log10 of the molar value.
Collected set of pIC50 measured with Glycogen synthase kinase-3 beta (Homo sapiens, UniProt P49841) across studies.

Here are 8 molecules together with their reported answers.
O=[N+]([O-])c1cccc(Sc2c[nH]c3nccc(-c4cccc(C(F)(F)F)c4)c23)c1 ≥ 5.00
O=S(=O)(NCc1ccccc1)c1ccc(-c2ccnc(NCCNc3ccccn3)n2)cc1 ≥ 5.00
O=C1CCN2CCN(CC2)Cc2cccc(c2)Nc2ncnc(n2)-c2ccnc(c2)NCCCN1 6.00 to 7.00
CCOC(=O)c1cnc(NCCNc2ncccn2)nc1-c1ccc(C#N)cc1 ≥ 5.00
Cc1cn(-c2ccccc2)nc1-c1ccnc(NCCNc2ccccn2)n1 ≥ 5.00
O=[N+]([O-])c1ccc(NCCNc2ncc([N+](=O)[O-])c(-c3ccccc3)n2)nc1 ≥ 6.00
Cc1nc(NCCNc2ccc([N+](=O)[O-])cn2)ncc1C(=O)O ≥ 5.00
CN1CC(=O)NCCCc2cc(ccn2)-c2ncnc(n2)Nc2cccc(c2)C1 > 8.00

Please look at the following molecule next.
Entry O=C(NCc1ccc(F)cc1)c1ccc(-c2ccnc(NCCNc3ccc([N+](=O)[O-])cn3)n2)cc1 under Glycogen synthase kinase-3 beta (Homo sapiens, UniProt P49841) had pIC50 of ≥ 5.00

====

Several publications report IC50 on Glycogen synthase kinase-3 beta (Homo sapiens); those values are gathered here.

These recorded examples may help you get a feel for the data.
O=C(Nc1cnccn1)Nc1ccnc2cc(I)ccc12 < 0.1 µM
COc1cccc(CNC(=O)c2ccc(-c3ccnc(NCCNc4ccc([N+](=O)[O-])cn4)n3)cc2)c1 ≤ 1 µM
CCc1ccc(-c2nc(NCCNc3ccc([N+](=O)[O-])c(N)n3)ncc2-n2ccnc2)cc1 ≤ 1 µM

Summary for this molecule, O=C(Nc1scnc1-c1nc2ccccc2[nH]1)c1c(F)cccc1F : IC50 is < 1 µM

====

Across several studies, molecules have been characterized by their IC50 on Glycogen synthase kinase-3 beta (Homo sapiens); a selection follows.

molecule	experimental.target	IC50
N#Cc1ccc(NCCNc2nccc(-c3ccc(C(N)=O)cc3)n2)nc1	Glycogen synthase kinase-3 beta (Homo sapiens)	≤ 1000 nM
C(=N\Nc1ncnc2c1cnn2-c1ccccn1)/c1ccncc1	Glycogen synthase kinase-3 beta (Homo sapiens)	1000 to 10000 nM
O=c1c(Cl)c(-c2ccncn2)nc2n1CCCN2C[C@@H](O)c1ccccc1	Glycogen synthase kinase-3 beta (Homo sapiens)	> 100 nM
NC(=O)c1ccc(-c2ccnc(NCCCOc3ccc(Cl)cc3)n2)cc1	Glycogen synthase kinase-3 beta (Homo sapiens)	≤ 10000 nM
N#Cc1sc(NCCNc2nc(-c3ccc(Cl)cc3Cl)cc3nccn23)nc1N	Glycogen synthase kinase-3 beta (Homo sapiens)	15 nM
N#Cc1ccc(NCCNc2ccc([N+](=O)[O-])c(NCc3ccccc3)n2)nc1	Glycogen synthase kinase-3 beta (Homo sapiens)	≤ 10000 nM

Now consider a different molecule.
Glycogen synthase kinase-3 beta (Homo sapiens) assay, molecule CCOC(=O)c1cnc(NCCNc2ccc([N+](=O)[O-])c(NC)n2)nc1-c1ccc(C#N)cc1 , recorded IC50 = ≤ 10000 nM

====

Endpoint summary: IC50, system: Glycogen synthase kinase-3 beta (Homo sapiens), multiple sources combined.

Examples from the recorded data:
compound	measured.metric	result
CCOC(=O)c1cnc(NCCNc2ccc(C(=O)O)cn2)nc1-c1ccc(C#N)cc1	IC50	≤ 10000 nM
O=C(NC1CNCCn2c1nc(-c1ccncc1)cc2=O)c1cc(F)cc2c1OCOC2 (racemic)	IC50	12 nM
NC(=O)c1ccc(-c2ccnc(NCCCOc3ccc(Cl)cc3Cl)n2)cc1	IC50	≤ 10000 nM
O=C(c1c(F)ccc(NS(=O)(=O)c2ccccc2)c1F)c1c[nH]c2ncc(F)cc12	IC50	≤ 10000 nM
O=C(Nc1cnc(F)cc1N1CCC(F)(F)CC1)c1ccnn2cc(-c3ccccc3)nc12	IC50	2.3 nM

Note to self: IC50 recorded for CN1CCn2c(nc(-c3ccncn3)cc2=O)C(NC(=O)c2cc(Cl)c(N)c3c2OCCO3)C1 (racemic) was 47 nM

So for COc1cc(Cl)ccc1C(=O)NCC1CCCn2c1nc(-c1ccncn1)cc2=O (racemic) , the logged IC50 turned out to be 19 nM
